SYSTEM TESTED: human TSH receptor (Homo sapiens (Human))
Sequence (P16473 21-764): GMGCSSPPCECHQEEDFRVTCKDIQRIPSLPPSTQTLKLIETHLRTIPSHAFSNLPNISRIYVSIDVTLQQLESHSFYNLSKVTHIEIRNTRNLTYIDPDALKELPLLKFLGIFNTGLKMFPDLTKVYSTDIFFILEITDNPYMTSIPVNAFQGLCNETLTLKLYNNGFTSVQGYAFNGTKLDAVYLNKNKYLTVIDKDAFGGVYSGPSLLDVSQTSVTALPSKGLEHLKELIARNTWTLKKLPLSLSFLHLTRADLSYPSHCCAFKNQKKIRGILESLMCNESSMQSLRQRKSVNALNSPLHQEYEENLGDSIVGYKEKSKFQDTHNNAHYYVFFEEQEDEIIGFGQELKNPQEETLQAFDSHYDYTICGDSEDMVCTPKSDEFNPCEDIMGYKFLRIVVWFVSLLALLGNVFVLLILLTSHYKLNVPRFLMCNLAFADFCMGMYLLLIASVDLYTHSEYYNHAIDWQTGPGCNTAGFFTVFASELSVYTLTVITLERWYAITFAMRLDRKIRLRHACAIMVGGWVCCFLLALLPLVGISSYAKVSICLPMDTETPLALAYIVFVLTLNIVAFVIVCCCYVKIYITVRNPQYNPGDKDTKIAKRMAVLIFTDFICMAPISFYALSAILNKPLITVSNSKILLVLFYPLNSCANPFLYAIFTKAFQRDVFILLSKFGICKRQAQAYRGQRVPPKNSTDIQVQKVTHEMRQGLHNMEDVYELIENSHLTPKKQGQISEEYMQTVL
ASSAY PROCEDURE: Antagonist activity against human TSI at the human TSH receptor expressed in CHO cells (CRE-luciferase reporter, rolipram)
Format: cell-based
CONDITION DETAILS: stimulated with 3.16 mg/ml human TSI; 10 μM rolipram; CHO cells cultured 16 h without serum
MEASURED QUANTITY: pIC50
Friendly reminder that pIC50 comes from taking -log10 of the concentration in mol/L.

Illustrative cases are given below, each with its answer.
CC(=O)N1CCC(C)(c2ccccc2)c2cc(NC(=O)OC3CCCC3)ccc21 (single isomer, unassigned; (+))    7.92
CCCCCC(=O)Nc1ccc2c(c1)C(C)(c1ccccc1)CC(C)(C)N2C(C)=O (stereo not drawn)    7.06

Field: next compound
Ask: # query: pIC50 | item CC(=O)N1CCC(C)(c2ccccc2)c2cc(NC(=O)OCc3ccc(F)c(Cl)c3)ccc21 (single isomer, unassigned; (+)) | system: human TSH receptor (Homo sapiens (Human))
Reply: 7.33

* * *

SYSTEM TESTED: human TSH receptor (Homo sapiens (Human))
ASSAY PROCEDURE: Antagonist activity against bovine TSH at the human TSH receptor in CHO cells under the TSI assay conditions (CRE-luciferase reporter, rolipram)
Assay type: cell-based
CONDITION DETAILS: stimulated with 18 nM bovine TSH; 10 μM rolipram; CHO cells cultured 16 h without serum
The entries below are paired with their reported IC50.
Return type: number; implicit unit nM.

Guide cases for IC50, answers given:
CC(=O)N1CCC(C)(c2ccccc2)c2cc(NC(=O)OC3CCCC3)ccc21 (single isomer, unassigned; (+))    48
CC(=O)N1CCC(C)(c2ccccc2)c2cc(NC(=O)OCc3ccc(F)c(Cl)c3)ccc21 (single isomer, unassigned; (+))    192

The record that follows has no IC50 shown yet.
Ask: Dear colleague, I am looking for the recorded IC50 of the following molecule: CCCCCC(=O)Nc1ccc2c(c1)C(C)(c1ccccc1)CC(C)(C)N2C(C)=O (stereo not drawn)
Reply: 368

* * *

SYSTEM TESTED: human TSH receptor (Homo sapiens (Human))
ASSAY PROCEDURE: Antagonist activity against TSH at the human TSH receptor expressed in CHO cells (CRE-luciferase reporter)
CONDITION DETAILS: together with 18 nM bovine TSH
List of IC50 values.

CC(=O)N1CCC(C)(c2ccccc2)c2cc(NC(=O)OCC3CCC3)ccc21 (stereo not drawn)    < 100 nM
CC(=O)N1c2ccc(NC(=O)c3ccccn3)cc2C(C)(c2ccccc2)CC1(C)C (stereo not drawn)    < 100 nM
CC(=O)N1c2ccc(NC(=O)OCCOc3ccccc3)cc2C(C)(c2ccccc2)CC1(C)C (stereo not drawn)    < 100 nM

Ask: I have this compound here, CC(=O)N1CCC(C)(c2ccccc2)c2cc(NC(=O)OCc3ccc(F)c(Cl)c3)ccc21 (stereo not drawn) , and I need its recorded IC50.
Reply: < 100 nM

Ask: Using the record for CCCCOC(=O)Nc1ccc2c(c1)C(C)(c1ccccc1)CC(C)(C)N2C(C)=O (stereo not drawn) , report its IC50.
Reply: < 100 nM

Ask: So what does the record say about IC50 for CC(=O)N1CCC(C)(c2ccccc2)c2cc(NC(=O)OCC3(C)CC3)ccc21 (stereo not drawn) ?
Reply: < 100 nM

Ask: Fill blank: measured IC50 of the compound CCCCCC(=O)Nc1ccc2c(c1)C(C)(c1ccccc1)CC(C)(C)N2C(C)=O (stereo not drawn) is ____.
Reply: < 100 nM

Ask: Endpoint output: IC50 of CC(=O)N1c2ccc(NC(=O)CCc3cccc(Cl)c3)cc2C(C)(c2ccccc2)CC1(C)C (stereo not drawn) . Value?
Reply: < 100 nM

Ask: Which IC50 is listed for CC(=O)N1CCC(C)(c2ccccc2)c2cc(NC(=O)OCCC(C)C)ccc21 (stereo not drawn) ?
Reply: < 100 nM
